B1: Osa-1-4 twister ribozyme (parent)
chain: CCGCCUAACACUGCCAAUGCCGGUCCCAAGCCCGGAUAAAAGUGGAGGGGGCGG

# Variants of: B1
# assay info: self-cleavage, relative activity (ratio to wild type); higher = more cleavage; co-transcriptional
We use 0.09 as the dividing line for self-cleavage: on or above the line is 1 (yes), below is 0 (no).

## Input Is it the case that A38U G19A has self-cleavage reaching or exceeding 0.09?
## Output 1 (yes)

## Input Please indicate if the recorded self-cleavage for G49C U12C meets or exceeds 0.09.
## Output 0 (no)

## Input Would you say G34U G53U shows self-cleavage at minimum 0.09?
## Output 1 (yes)

## Input Assess whether reported self-cleavage for C20U U12G sits at 0.09 or higher.
## Output 1 (yes)

## Input Is self-cleavage at least 0.09? Consider C14U C15A
## Output 0 (no)

## Input Can G13C G19A be said to have self-cleavage at or above 0.09?
## Output 0 (no)

## Input // inclusive: self-cleavage at least 0.09? input: A7G G30U
## Output 0 (no)

## Input Decide: is the reported value of self-cleavage for C25U C52A equal to or greater than 0.09?
## Output 1 (yes)

## Input Test whether the variant A8C G49C records self-cleavage of 0.09 or higher.
## Output 0 (no)

## Input Is self-cleavage for A17U U24C at or above 0.09?
## Output 1 (yes)

## Input Tell me whether self-cleavage is at least 0.09 here: G19U G48U
## Output 0 (no)

## Input State whether the measured self-cleavage reaches 0.09, counting equality as reaching it, for C33U G42C
## Output 0 (no)

## Input State whether the measured self-cleavage reaches 0.09, counting equality as reaching it, for G13A G19C
## Output 0 (no)

## Input In plain terms: is recorded self-cleavage at least 0.09 for A41U G23A ?
## Output 1 (yes)

## Input Evaluate A46C G34A : self-cleavage at minimum 0.09?
## Output 0 (no)

## Input In plain terms: is recorded self-cleavage at least 0.09 for A28C C21U ?
## Output 1 (yes)

## Input Could you please find out whether A8U C27G has self-cleavage that meets 0.09 or exceeds it?
## Output 0 (no)

## Input self-cleavage >= 0.09 for C15G G47C ?
## Output 0 (no)

## Input Could you verify whether the entry A36C C21U shows self-cleavage of no less than 0.09?
## Output 1 (yes)

## Input # bool: self-cleavage of G45A U24A >= 0.09
## Output 0 (no)

## Input Decide: self-cleavage of A16U C33A >= 0.09?
## Output 1 (yes)

## Input Is self-cleavage for G51A U24G at or above 0.09?
## Output 0 (no)

## Input Check this variant for self-cleavage at or above 0.09: G23U G51A
## Output 0 (no)

## Input Hi team, for C31U U18A , is the recorded self-cleavage at or above 0.09?
## Output 1 (yes)

## Input Does the reported self-cleavage for G23C G48U fall at or above the 0.09 mark?
## Output 0 (no)

## Input Determine whether this variant has self-cleavage no lower than 0.09: C15A C26G
## Output 0 (no)

## Input Answer whether self-cleavage of A10U G50C is greater than or equal to 0.09.
## Output 0 (no)

## Input Is self-cleavage for G48U U18A at or above 0.09?
## Output 0 (no)

## Input Could you tell me if the measured self-cleavage of A10C A39C reaches 0.09 or more?
## Output 0 (no)

## Input Threshold query (self-cleavage >= 0.09) on A8G C11U
## Output 1 (yes)

## Input Can A38U G30C be said to have self-cleavage at or above 0.09?
## Output 0 (no)

## Input self-cleavage >= 0.09 for G13A U18C ?
## Output 1 (yes)

## Input Answer whether self-cleavage of U24C U37A is greater than or equal to 0.09.
## Output 1 (yes)

## Input Kindly determine if self-cleavage recorded for C15U G54U is above or exactly 0.09.
## Output 1 (yes)

## Input For this variant, is measured self-cleavage 0.09 or higher? G53C
## Output 1 (yes)

## Input Assess whether reported self-cleavage for G35A U43C sits at 0.09 or higher.
## Output 1 (yes)

## Input Tell me whether self-cleavage is at least 0.09 here: C9A U37A
## Output 1 (yes)

## Input hey, is self-cleavage for this one >= 0.09? G19A G49U
## Output 0 (no)

## Input Assess whether reported self-cleavage for C32G G53A sits at 0.09 or higher.
## Output 1 (yes)

## Input Hi, just wondering whether A46G G42U shows self-cleavage of 0.09 or higher.
## Output 0 (no)

## Input Can A36C C15A be said to have self-cleavage at or above 0.09?
## Output 1 (yes)

## Input Item G35U U37A with self-cleavage of 0.09 or above?
## Output 1 (yes)

## Input Hi, just wondering whether A36G A41G shows self-cleavage of 0.09 or higher.
## Output 1 (yes)

## Input In plain terms: is recorded self-cleavage at least 0.09 for G13U G50U ?
## Output 0 (no)

## Input Does the variant C27A G44U have recorded self-cleavage that is 0.09 or more?
## Output 1 (yes)

## Input Determine whether this variant has self-cleavage no lower than 0.09: A8G C11A
## Output 1 (yes)

## Input Given A16C G49U , state whether its self-cleavage is at least 0.09.
## Output 0 (no)

## Input Quick check, self-cleavage >= 0.09? C27G U12C
## Output 0 (no)

## Input State whether the measured self-cleavage reaches 0.09, counting equality as reaching it, for G34U G42U
## Output 0 (no)

## Input # check: self-cleavage of A41C G48C is greater than or equal to 0.09
## Output 1 (yes)

## Input Could you tell me if the measured self-cleavage of A39U A46U reaches 0.09 or more?
## Output 0 (no)

## Input Check the entry C11U C33A : does self-cleavage equal or exceed 0.09?
## Output 0 (no)

## Input Could you verify whether the entry A17C U12C shows self-cleavage of no less than 0.09?
## Output 0 (no)

## Input Please check the record C27A C32U and state if its self-cleavage is at or above 0.09.
## Output 0 (no)

## Input Test whether the variant C33U G49A records self-cleavage of 0.09 or higher.
## Output 0 (no)

## Input Is it the case that A17C C31A has self-cleavage reaching or exceeding 0.09?
## Output 0 (no)

## Input Could you verify whether the entry A28C U12G shows self-cleavage of no less than 0.09?
## Output 1 (yes)
